Values compiled from patent US20050228180A1.

# Target system: α1A adrenoceptor (Rattus norvegicus, UniProt P43140)
# Construct: from tissue; host or cells: rat submaxillary gland membranes
# Sequence (P43140 whole entry): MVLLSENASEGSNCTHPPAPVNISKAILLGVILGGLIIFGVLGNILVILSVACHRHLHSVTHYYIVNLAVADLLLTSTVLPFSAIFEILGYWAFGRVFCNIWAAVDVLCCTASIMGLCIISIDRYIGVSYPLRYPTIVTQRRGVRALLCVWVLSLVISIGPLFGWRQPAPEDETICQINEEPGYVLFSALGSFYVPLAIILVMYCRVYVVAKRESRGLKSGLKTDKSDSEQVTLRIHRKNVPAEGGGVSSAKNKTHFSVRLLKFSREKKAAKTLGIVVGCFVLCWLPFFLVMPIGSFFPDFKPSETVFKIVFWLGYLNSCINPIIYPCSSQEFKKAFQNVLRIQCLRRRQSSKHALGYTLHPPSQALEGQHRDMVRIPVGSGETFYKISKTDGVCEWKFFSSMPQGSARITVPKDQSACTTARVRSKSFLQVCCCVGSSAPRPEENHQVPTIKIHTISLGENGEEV
# Experimental protocol: Radioligand binding, [3H] prazosin displacement, rat submaxillary membranes
# Measurement parameters: ratio of binding affinities, rat liver / rat submaxillary
Counter-ions that a name gives are not always drawn.
Observation type: α1B/α1A

Compound | Observation type | Readout number
CC(=O)OC1C=CCC2C(=O)N(CCCN3CCN(c4ccccc4OC(C)C)CC3)C(=O)C12 (stereo not drawn) [Compound No. 40, hydrochloride] | α1B/α1A | 174

[P] CC(C)Oc1ccccc1N1CCN(CCCN2C(=O)[C@@H]3[C@H](C2=O)[C@H]2C=C[C@@H]3O2)CC1 [Compound No. 61, hydrochloride]
[Q] CC(C)Oc1ccccc1N1CCN(CCCN2C(=O)C3CC=CCC3C2=O)C(=O)C1=O (stereo not drawn)
INPUT: Select one. Lower α1B/α1A: P or Q Pick one and reply with its label.
OUTPUT: Q
(Q: 1, P: 31)

[A] O=C1C2CC=CCC2C(=O)N1CCCN1CCN(c2ccccc2-c2ccccc2)CC1 (stereo not drawn) [Compound No. 45, hydrochloride]
[B] CC(C)Oc1ccccc1N1CCN(CCCN2C(=O)C3=CC=CCC3C2=O)CC1.Cl (stereo not drawn)
[C] Cl.O=C1C2CC=CCC2C(=O)N1CCCN1CCN(c2ccccc2OC2CCCC2)CC1 (stereo not drawn)
[D] Cl.O=C1CCCC(=O)N1CC(O)CN1CCN(c2ccccc2OCC(F)(F)F)CC1 (stereo not drawn)
INPUT: Hey, can you sort those compounds up there by α1B/α1A, smallest first? Show the ranking through the labels, in the order asked for.
OUTPUT: A, B, C, D

[A] Cl.O=C1C2CCC(O)CC2C(=O)N1CCCN1CCN(c2ccccc2OCC(F)(F)F)CC1 (stereo not drawn)
[B] CC(C)Oc1cccc(O)c1N1CCN(CCCN2C(=O)C3CC=CCC3C2=O)CC1 (stereo not drawn) [Compound No. 27, hydrochloride]
[C] COc1ccccc1[N+]1([O-])CCN(CCCN2C(=O)CCCC2=O)CC1
[D] CC(C)Oc1ccccc1N1CCN(CC(O)CN2C(=O)CCCC2=O)CC1.Cl (stereo not drawn)
[E] CC(C)Oc1ccccc1N1CC[N+]([O-])(CC(O)CN2C(=O)C3CC=CCC3C2=O)CC1 (stereo not drawn)
INPUT: Highest α1B/α1A first, then in falling order down to the smallest. Show the ranking through the labels, in the order asked for.
OUTPUT: A, D, C, B, E
(A: 142, D: 85, C: 51, B: 16, E: 1)
